- target.under.test: IL-17A(FLAG-Tagged): IL-17RA(His-Tagged) (Homo sapiens, UniProt Q16552, K93Q)
- Sequence (Q16552 with tags, fused parts or gaps K93Q): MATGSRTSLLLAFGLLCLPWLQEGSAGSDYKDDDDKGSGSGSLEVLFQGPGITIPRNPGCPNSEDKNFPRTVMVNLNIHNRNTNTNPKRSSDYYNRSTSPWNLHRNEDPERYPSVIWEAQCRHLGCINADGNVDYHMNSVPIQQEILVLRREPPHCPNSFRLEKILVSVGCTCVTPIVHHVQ
- experiment.summary: IL-17A(FLAG-Tagged): IL-17RA(His-Tagged) Binding Disruption Eu-HTRF Assay
- assay.setup: IL-17A/IL-17RA binding disruption, simple average if tested more than once
pIC50: −log10 of the molar value.
Tag: 1 (yes) if measured pIC50 is not below 6, 0 (no) if it is.

Some solved entries appear below for comparison.
[[record]]
compound = "O=C(CCC(F)(F)F)N[C@@H](c1cnn2cc([C@@H](NC(=O)c3cncc(C4CCC4)c3)C3CCC(F)(F)CC3)nc2c1)C1CC1 [Example 416]"
target_under_test = "IL-17A(FLAG-Tagged): IL-17RA(His-Tagged) (Homo sapiens, UniProt Q16552, K93Q)"
class_name = "1 (yes)"

[[record]]
compound = "O=C(CCC(F)(F)F)N[C@@H](c1cnn2cc([C@@H](NC(=O)c3cnn(CCCF)n3)C3CCC(F)(F)CC3)nc2c1)C1CC1 [Example 113]"
target_under_test = "IL-17A(FLAG-Tagged): IL-17RA(His-Tagged) (Homo sapiens, UniProt Q16552, K93Q)"
class_name = "1 (yes)"

[[record]]
compound = "CC(C)n1nccc1C(=O)N[C@H](c1cn2ncc(C(NC(=O)CC3CC(F)(F)C3)C3(C#N)CC3)cc2n1)C1CCC(F)(F)CC1 (single isomer, unassigned) [Example 426]"
target_under_test = "IL-17A(FLAG-Tagged): IL-17RA(His-Tagged) (Homo sapiens, UniProt Q16552, K93Q)"
class_name = "1 (yes)"


Evaluate Cc1ccccc1C(=O)N[C@H](c1cn2ncc([C@H](NC(=O)CCC(F)(F)F)C3CC3)cc2n1)C1CCC(F)(F)CC1 [Example 40] : pIC50 at minimum 6?
1 (yes)

Identify whether the reported pIC50 of the following compound is 6 or greater: Cc1cnccc1C(=O)N[C@H](c1cn2ncc([C@H](NC(=O)CCC(F)(F)F)C3CC3)cc2n1)C1CCC(F)(F)CC1 [Example 214]
0 (no)

Identify whether the reported pIC50 of the following compound is 6 or greater: Cc1cnoc1C(=O)N[C@H](c1cn2ncc([C@H](NC(=O)CCC(F)(F)F)C3CC3)cc2n1)C1CCC(F)(F)CC1 [Example 160]
1 (yes)

Assess whether reported pIC50 for Cc1noc(C(=O)N[C@H](c2cn3ncc([C@H](NC(=O)CCC(F)(F)F)C4CC4)cc3n2)C2CCC(F)(F)CC2)c1C [Example 473] sits at 6 or higher.
0 (no)

Does the reported pIC50 for Cc1nonc1C(=O)N[C@H](c1cn2ncc([C@H](NC(=O)CC(C)(C)C(F)(F)F)C3CC3)cc2n1)C1CCC(F)(F)CC1 [Example 253] fall at or above the 6 mark?
1 (yes)
